- targetOrTestSystem: T1, gH/gL/UL128/UL130/UL131A pentamer complex expressed from MVA-PC in BHK-21 cells (human cytomegalovirus, UniProt P12824 24-743; P16832 31-278; P16837 28-171; P16772 1-214; F5HET4 19-129)
- T1 construct: whole, on cells
- assayInfo: FC competition, MVA-PC BHK-21; unlabelled row Ab; competitor: biotinylated 1B2
Listed next: entries and their corresponding Binding Inhibition (%).
Report only the number, with the unit % understood.

Some solved entries appear below for comparison.
| binder | unitText | valueObserved |
| --- | --- | --- |
| 1B2 (antibody, V domains shown, also called NAb 1B2) VH: EVQLVESGGVLVKPGGSLKLSCAASGFTFSDYYMYWVRQTPEKRLEWVATISDDGNYTNYPDSVKGRFTISRDNAKNNLYLQMSSLKSEDTAMYYCARGWLLPVFAYWGQGTLVTVSA VL: DIVLTQSPATLSVTPGDSVSLSCRASQSIGNNLHWYQQKSHESPRLLIKYTSQSISGIPSRFSGSGSGTDFTLNINSVETEDFGVYFCQQSNRWPWTFGGGTKLEIK | % | 100 |
| 18F10 (antibody, V domains shown, also called NAb 18F10) VH: QVTLKESGPGILQPSQTLSLTCSFSGFSLSTYGIGIGWIRQPSGKGLEWLAHIWWNDNKNYNTALKSRLTISKDPSNNQVFLKIASVDTADTATYFCARTGYFDVWGAGTTVTVSS VL: DVVLTQTPLSLPVSLGDQVSISCSSSQSLVHSNGNTYIHWYLQKPGQSPKLLIYTVSNRFSGVPDRFSGSGSGTDFTLKISRVEAEDLGLYFCSQSTHVPYTFGGGTKLEIK | % | 0 |

Could you tell me which Binding Inhibition (%) is on file for 13B5 (antibody, V domains shown, also called NAb 13B5; 1365) VH: QVTLKESGPGILKPSQTLSLTCSFSGFSLTTSGLGVGWIRQPSGKGLEWLAHIWWDDDKYFNPSLRNQLTISKDTSRNQVFLEITSVTTADTATYYCVRSLYDYDEGYYFDSWGQGTTLTVSS VL: EIVMIQSPATLSVNPGDRVSLSCRASQSISDYLHWYQQKSHESPRLLIKYASQSISGIPSRFSGSGSGSDFTLSINSVEPEDVGVYYCQNGHTFPPTFGGGTKLEIK ? 0

Proceed to 54E11 (antibody, V domains shown, also called NAb 54E11) VH: QIQLVQSGPELKKPGETVKISCKASGYTFTSYGMNWVKQAPGKGLKWMGWINTYTGEPTYADDFKGRFAFSLETSASTAYLQINNLKNEDTATYFCAREHYYGINPLLGCWGQGTTLTVSS VL: DIQMTQTTSSLSASLGDRVTISCSASQGISNYLNWYQQKPDGTVKLLIYDTSSLHSGVPSRFSGSGSGTDYSLTISNLEPEDIATYYCQQYSKLPYTFGGGTKLEIK 0

Proceed to 12E2 (antibody, V domains shown, also called NAb 12E2) VH: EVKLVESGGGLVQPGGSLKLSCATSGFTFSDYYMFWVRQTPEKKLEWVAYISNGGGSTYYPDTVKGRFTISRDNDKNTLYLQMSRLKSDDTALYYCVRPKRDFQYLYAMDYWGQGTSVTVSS VL: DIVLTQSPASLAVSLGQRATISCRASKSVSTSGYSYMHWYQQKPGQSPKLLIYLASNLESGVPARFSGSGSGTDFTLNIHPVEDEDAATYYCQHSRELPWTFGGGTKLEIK 100

Also check 21F6 (antibody, V domains shown, also called NAb 21F6) VH: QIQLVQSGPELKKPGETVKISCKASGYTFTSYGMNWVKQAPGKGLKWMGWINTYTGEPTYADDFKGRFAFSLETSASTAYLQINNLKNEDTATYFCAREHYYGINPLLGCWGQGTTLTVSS VL: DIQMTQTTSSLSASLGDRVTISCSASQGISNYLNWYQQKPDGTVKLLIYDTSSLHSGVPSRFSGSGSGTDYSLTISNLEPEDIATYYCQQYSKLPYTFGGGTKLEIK 0
